shrunken log2 fold change by entry:
System: Escherichia coli TOP10;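 also: peptides expressed intracellularly from a pBAD plasmid library in pooled LB shake-flask culture, induced with 0.3% L-arabinose, DNA abundance read by NGS, three biological replicates, DESeq2 with apeglm shrinkage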
Experiment: shrunken log2 fold change of peptide-encoding DNA abundance (4.5 h post-induction vs induction); higher = less antimicrobial activity (less host growth inhibition)
Details: time post-induction: 4.5 h; library: site-saturation at positions 5, 18, 19, 20
RECORDED_METRIC: shrunken log2 fold change

- ORDERED_RESIDUES: "RRIRPRPPRLPRPRPRPSNGPRP"
  MEASUREMENT: -0.113
- ORDERED_RESIDUES: "RRIRIRPPRLPRPRPRPMSLPRP"
  MEASUREMENT: -0.0475
- ORDERED_RESIDUES: "RRIRTRPPRLPRPRPRPKDYPRP"
  MEASUREMENT: -0.115
- ORDERED_RESIDUES: "RRIRMRPPRLPRPRPRPHEYPRP"
  MEASUREMENT: -0.308
- ORDERED_RESIDUES: "RRIRVRPPRLPRPRPRPEFPPRP"
  MEASUREMENT: -0.081
- ORDERED_RESIDUES: "RRIRMRPPRLPRPRPRPNCRPRP"
  MEASUREMENT: -0.135
- ORDERED_RESIDUES: "RRIRRRPPRLPRPRPRPHYNPRP"
  MEASUREMENT: -0.202
- ORDERED_RESIDUES: "RRIRTRPPRLPRPRPRPPVFPRP"
  MEASUREMENT: 0.346
- ORDERED_RESIDUES: "RRIRLRPPRLPRPRPRPSGHPRP"
  MEASUREMENT: -0.208
- ORDERED_RESIDUES: "RRIRMRPPRLPRPRPRPAKLPRP"
  MEASUREMENT: 0.441
- ORDERED_RESIDUES: "RRIRARPPRLPRPRPRPQTVPRP"
  MEASUREMENT: 0.129
- ORDERED_RESIDUES: "RRIRYRPPRLPRPRPRPAGTPRP"
  MEASUREMENT: -0.0595
- ORDERED_RESIDUES: "RRIRTRPPRLPRPRPRPCGVPRP"
  MEASUREMENT: -0.175
- ORDERED_RESIDUES: "RRIRKRPPRLPRPRPRPKHTPRP"
  MEASUREMENT: 0.281
- ORDERED_RESIDUES: "RRIRGRPPRLPRPRPRPDMKPRP"
  MEASUREMENT: 0.00543
- ORDERED_RESIDUES: "RRIRFRPPRLPRPRPRPMWFPRP"
  MEASUREMENT: -0.0145
- ORDERED_RESIDUES: "RRIRLRPPRLPRPRPRPNISPRP"
  MEASUREMENT: -0.373
- ORDERED_RESIDUES: "RRIRMRPPRLPRPRPRPTMCPRP"
  MEASUREMENT: 0.674
- ORDERED_RESIDUES: "RRIRERPPRLPRPRPRPCNAPRP"
  MEASUREMENT: -0.0483
- ORDERED_RESIDUES: "RRIRTRPPRLPRPRPRPSISPRP"
  MEASUREMENT: -0.362
- ORDERED_RESIDUES: "RRIRDRPPRLPRPRPRPNTRPRP"
  MEASUREMENT: -0.238
- ORDERED_RESIDUES: "RRIRPRPPRLPRPRPRPDNSPRP"
  MEASUREMENT: -0.228
- ORDERED_RESIDUES: "RRIRWRPPRLPRPRPRPQPEPRP"
  MEASUREMENT: 0.139
- ORDERED_RESIDUES: "RRIRWRPPRLPRPRPRPPWVPRP"
  MEASUREMENT: -0.00745
- ORDERED_RESIDUES: "RRIRTRPPRLPRPRPRPEGEPRP"
  MEASUREMENT: -0.0398
- ORDERED_RESIDUES: "RRIRDRPPRLPRPRPRPCLHPRP"
  MEASUREMENT: 0.0931
- ORDERED_RESIDUES: "RRIRMRPPRLPRPRPRPVACPRP"
  MEASUREMENT: 0.122
- ORDERED_RESIDUES: "RRIRWRPPRLPRPRPRPKTFPRP"
  MEASUREMENT: -0.0777
- ORDERED_RESIDUES: "RRIRGRPPRLPRPRPRPQVIPRP"
  MEASUREMENT: -0.0421
- ORDERED_RESIDUES: "RRIRFRPPRLPRPRPRPKWIPRP"
  MEASUREMENT: -0.699
- ORDERED_RESIDUES: "RRIRSRPPRLPRPRPRPGMKPRP"
  MEASUREMENT: -0.0636
- ORDERED_RESIDUES: "RRIRDRPPRLPRPRPRPTVSPRP"
  MEASUREMENT: 0.853
- ORDERED_RESIDUES: "RRIRKRPPRLPRPRPRPLFYPRP"
  MEASUREMENT: -0.0645
- ORDERED_RESIDUES: "RRIRHRPPRLPRPRPRPKQPPRP"
  MEASUREMENT: -0.00478
- ORDERED_RESIDUES: "RRIRERPPRLPRPRPRPRWWPRP"
  MEASUREMENT: 0.0167
- ORDERED_RESIDUES: "RRIRRRPPRLPRPRPRPKPWPRP"
  MEASUREMENT: 0.274
- ORDERED_RESIDUES: "RRIRGRPPRLPRPRPRPVEIPRP"
  MEASUREMENT: 0.177
- ORDERED_RESIDUES: "RRIRQRPPRLPRPRPRPFFCPRP"
  MEASUREMENT: 0.111
- ORDERED_RESIDUES: "RRIRPRPPRLPRPRPRPFMTPRP"
  MEASUREMENT: -0.511
- ORDERED_RESIDUES: "RRIRDRPPRLPRPRPRPIRVPRP"
  MEASUREMENT: -0.185
- ORDERED_RESIDUES: "RRIRSRPPRLPRPRPRPSTCPRP"
  MEASUREMENT: 0.0296
- ORDERED_RESIDUES: "RRIRKRPPRLPRPRPRPQDRPRP"
  MEASUREMENT: 0.201
- ORDERED_RESIDUES: "RRIRHRPPRLPRPRPRPYMLPRP"
  MEASUREMENT: -1.66
- ORDERED_RESIDUES: "RRIRMRPPRLPRPRPRPVIDPRP"
  MEASUREMENT: 0.0403
- ORDERED_RESIDUES: "RRIRGRPPRLPRPRPRPQKCPRP"
  MEASUREMENT: 0.122
- ORDERED_RESIDUES: "RRIRLRPPRLPRPRPRPKVIPRP"
  MEASUREMENT: -0.185
- ORDERED_RESIDUES: "RRIRDRPPRLPRPRPRPCHMPRP"
  MEASUREMENT: 0.00148
- ORDERED_RESIDUES: "RRIRVRPPRLPRPRPRPFSAPRP"
  MEASUREMENT: -0.132
- ORDERED_RESIDUES: "RRIRCRPPRLPRPRPRPMHGPRP"
  MEASUREMENT: 0.0358
- ORDERED_RESIDUES: "RRIRIRPPRLPRPRPRPNIHPRP"
  MEASUREMENT: -0.936
- ORDERED_RESIDUES: "RRIRSRPPRLPRPRPRPFAEPRP"
  MEASUREMENT: 0.256
- ORDERED_RESIDUES: "RRIRWRPPRLPRPRPRPFQFPRP"
  MEASUREMENT: -0.198
- ORDERED_RESIDUES: "RRIRRRPPRLPRPRPRPVAVPRP"
  MEASUREMENT: 0.348
- ORDERED_RESIDUES: "RRIRWRPPRLPRPRPRPTYCPRP"
  MEASUREMENT: -0.126
- ORDERED_RESIDUES: "RRIRERPPRLPRPRPRPPPEPRP"
  MEASUREMENT: 0.574
- ORDERED_RESIDUES: "RRIRYRPPRLPRPRPRPVPQPRP"
  MEASUREMENT: -0.0271
- ORDERED_RESIDUES: "RRIRRRPPRLPRPRPRPQQGPRP"
  MEASUREMENT: 0.0446
- ORDERED_RESIDUES: "RRIRGRPPRLPRPRPRPGHMPRP"
  MEASUREMENT: -0.129
- ORDERED_RESIDUES: "RRIRERPPRLPRPRPRPHPYPRP"
  MEASUREMENT: -0.103
- ORDERED_RESIDUES: "RRIRTRPPRLPRPRPRPKPSPRP"
  MEASUREMENT: 0.335
- ORDERED_RESIDUES: "RRIRERPPRLPRPRPRPTCPPRP"
  MEASUREMENT: -0.103
- ORDERED_RESIDUES: "RRIRNRPPRLPRPRPRPPETPRP"
  MEASUREMENT: 0.314
- ORDERED_RESIDUES: "RRIRTRPPRLPRPRPRPYEEPRP"
  MEASUREMENT: -0.573
